Source of measurements: PubChem BioAssay AID1626

Quick reference: inhibition of the listed items.
Test: M. tuberculosis H37Rv growth inhibitors, H37Rv strain (AID 1626);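 also: bacteria incubated seven days before Alamar blue readout; 0% = bacteria only wells and 100% = bacteria with antibiotic wells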
Settings: active compounds read high, concentration not given here
In all, about 220,000 compounds went through this assay and about 2,000 (0.91%) were called active. Inconclusive results (about 2%) are left out. The list is a sample of the results. Results with a measured potency or affinity are listed apart.

Solved cases (3 shown):
# compound, inhibition
measured = [
    ("CNC(=S)NNC(=O)c1sccc1OCc1ccc(Cl)cc1Cl", "-2.33% (inactive)"),
    ("Cc1ccc(CNC(=O)C2CCCN(Cc3cnn(-c4ccccc4)c3-n3cccc3)C2)cc1 (stereo not given)", "3.25% (inactive)"),
    ("CC(=O)NCCc1nc2ccccc2n1Cc1ccc(Cl)cc1", "-2.45% (inactive)"),
]

The compound identified as CC1CC1C(=O)Nc1nc(-c2ccccc2)cs1 (stereo not given) registered its inhibition at -12.6% (inactive)

Looking up CCC(=O)Nc1nonc1-c1nc2ccccc2n1Cc1ccccc1 , I see its inhibition listed as 22.2% (inactive)

Documented inhibition of C[C@@H](C(=O)Nc1nc(-c2ccccn2)cs1)N1C(=O)C2CCCCC2C1=O (stereo not given in full) : 1.46% (inactive)

// field: inhibition; key: Cc1cccc2nc(-c3cccc(NC(=O)Cc4ccccc4)c3)cn12 ; value = 10.1% (inactive)

Short answer for Cc1cccc2c1NC(=O)C21N2CCCC2C(C(=O)c2ccc3ccccc3c2)C12C(=O)Nc1ccccc12 (stereo not given) : inhibition was 21.8% (inactive)

---

Each entry below carries its recorded inhibition.
Assay: M. tuberculosis H37Rv growth inhibitors, H37Rv strain (AID 1626)
Settings: active compounds read high, concentration not given here
Out of some 220,000 compounds screened, about 2,000 (0.91%) were called active. Not shown: some 2% with an inconclusive outcome. The list is a sample of the results. Potency and affinity values are given separately.
Write the value in % as a bare number.

Below: 2 compounds and their reported inhibition.
# compound, inhibition / %
measured = [
    ("O=C(OCC(=O)N1CCCc2ccccc21)c1cncc(Br)c1", -11.1),
    ("O=C(Nc1ccc(Cl)c([N+](=O)[O-])c1)ONC1=NCCCCC1", 0.03),
]

Recorded inhibition (compound Cn1c(NC(=O)c2cccc(Cn3cc(Cl)cn3)c2)nc2ccccc21 ): 84.7

The measured inhibition associated with COC(=O)C1C(O)=C(C=Nc2cccc3ccccc23)C(=O)CC1(C)C (configuration not stated) reads 55

# inhibition of CCn1c(CNC(=O)c2ccccc2)nc2ccccc21 = -6.06

---

Assay: M. tuberculosis H37Rv growth inhibitors, H37Rv strain (AID 1626)
Conditions: active compounds read high, concentration not given here
About 2,000 (0.91%) of roughly 220,000 compounds were called active. Inconclusive results (about 2%) are left out. These entries were drawn from the full list. Entries with a potency or affinity are not part of this list.
measured.endpoint: inhibition (%)
Answer in %, number only, no unit symbol.

# molecule, reported.value
records = [
    ("CN1CCc2ccccc2CC1=O", 1.98),
]

Notebook: COc1ccc(NC(=O)C(OC)c2ccccc2)cc1Cl (configuration not stated) , inhibition read as 4.82

Entry under test: Cc1cccc(N2C(=O)c3cccc4c(N5CCCCC5)c([N+](=O)[O-])cc(c34)C2=O)c1C . Its inhibition was 9.67

Value of inhibition reported for the molecule O=C(NCCCn1ccnc1)c1cn(-c2ccccc2)nc1-c1ccc(F)cc1 is 4.17

// recorded inhibition for CCN(C(=O)CSc1nnc(-c2ccc(Cl)cc2)n1C)C1CCS(=O)(=O)C1 (configuration not stated) : 1.77

CC1=CC(C)(C)N2C(=O)C(=Nc3ccc(O)cc3)c3cccc1c32 has a reported inhibition of 3

---

Assay: M. tuberculosis H37Rv growth inhibitors, H37Rv strain (AID 1626);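 also: bacteria incubated seven days before Alamar blue readout; 0% = bacteria only wells and 100% = bacteria with antibiotic wells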
Details: active compounds read high, concentration not given here
Out of some 220,000 compounds screened, about 2,000 (0.91%) were called active. Inconclusive results (about 2%) are left out. Only a sample is shown. Potency and affinity values are given separately.
The compounds listed here are annotated with their inhibition.
Write the number in % without appending the unit.

Here are 2 compounds together with their reported answers.
# compound, inhibition [%]
records = [
    ("C=C(C)C1Cc2c(C)nn(-c3cccc4ccccc34)c2C1 (stereo unspecified)", 13.7),
    ("COc1ccccc1NC(=O)COC(=O)c1cnc(C)cn1", 0.5),
]

Notebook: O=C(CSc1ncccn1)N/N=C/c1ccc(OC2CSC2)cc1 , inhibition read as 0.1

Lab book: inhibition of CCOC(=O)c1cccc(NC(=O)CN(c2ccc(C)cc2)S(=O)(=O)c2c(C)n[nH]c2C)c1 noted as -3.83

The reported inhibition of the compound COc1ccc2c(CC(=O)OCC(=O)c3ccccc3OC)coc2c1 was 3.25

// O=C(c1ccc2c(c1)OCO2)C1CCCN(C(=O)c2cnn(Cc3ccccc3)c2)C1 (stereo unspecified) : inhibition value = 5.07

Memo: Oc1ccccc1/C=N/[n+]1ccccc1 , reported inhibition: -3.35

---

Test: M. tuberculosis H37Rv growth inhibitors, H37Rv strain (AID 1626);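 also: bacteria incubated seven days before Alamar blue readout; 0% = bacteria only wells and 100% = bacteria with antibiotic wells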
Conditions: active compounds read high, concentration not given here
About 2,000 (0.91%) of roughly 220,000 compounds were called active. Roughly 2% stayed inconclusive and do not appear here. Only a sample is shown. Results with a measured potency or affinity are listed apart.
measured.endpoint: inhibition (%)
Write it as a number; the unit % goes unstated.

Consider the worked cases shown below.
# molecule, measured.endpoint, endpoint.unit, reported.value
rows = [
    ("Cc1cccc(C(=O)N2CCC(=O)N(C(COCc3cccc(Cl)c3)Cc3ccccc3)CC2)c1 (stereo not given)", "inhibition", "%", -0.5),
    ("COCCOC(=O)c1c(NC(=O)CN2c3ccccc3CC2C)sc(C(N)=O)c1C (stereo not given)", "inhibition", "%", 6.79),
]

// field: inhibition; key: CCc1cccc2c(C(=O)CSc3nnc(-c4ccoc4C)n3C)c[nH]c12 ; value = -9.96

Data point: Oc1ccc(-c2nccc(-c3cccs3)n2)cc1 ; inhibition = -3.17

// inhibition value for CC(=O)Oc1ccc2c(=O)c(Oc3ccccc3)c(C)oc2c1OC(C)=O : -17.4

In plain terms, O=C1O/C(=C\c2ccccc2)c2ccccc21 has a documented inhibition of 1.65

inhibition recorded for this molecule, COc1ccc(NC(=S)N(Cc2ccc(Cl)cc2)Cc2ccc(C(=O)O)cc2)cc1Cl , is 61

---

Experiment: M. tuberculosis H37Rv growth inhibitors, H37Rv strain (AID 1626);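 also: bacteria incubated seven days before Alamar blue readout; 0% = bacteria only wells and 100% = bacteria with antibiotic wells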
Settings: active compounds read high, concentration not given here
About 2,000 (0.91%) of roughly 220,000 compounds were called active. About 2% were inconclusive and are not listed. A selection follows. Potency and affinity values are given separately.
Below, each entry is listed with its recorded inhibition.
Give your result in % as a bare value.

See these solved cases before continuing.
# compound, endpoint.unit, reported.value
measured = [
    ("Cc1ccc(N2C(=O)C(CN3CCCC3)C2c2ccccc2)cc1 (configuration not stated)", "%", 27.1),
    ("Cc1ccc(-c2nn(-c3ccccc3)cc2/C=N/NC(=O)CSc2nnc(C)n2-c2ccccc2)cc1", "%", 5.75),
    ("CCSc1cc(N2CCCC2)nc(-c2ccc(C)cc2)n1", "%", 3.04),
    ("CCn1cc(CNC(=O)c2ccc(C)s2)cn1", "%", -1.4),
]

inhibition reported for this compound CCN(CC(=O)NCc1cccs1)c1ccc(S(=O)(=O)N2CCN(C)CC2)cn1 : -7.08

Summary for this compound, COCc1cc(CN2CCCC2)c(O)c2ncccc12 : inhibition is -1.29

In plain terms, O=C(NCc1ccc(F)cc1)c1ccc(N2CCc3ccccc32)c([N+](=O)[O-])c1 has a documented inhibition of 13.9

What the record says about CC(=O)Nc1ccc2c(c1)nc1n2CCN(C(C)c2ccccc2)C1 (configuration not stated) : inhibition is 5.76

Noted for CCOC(=O)C1CCCN(c2cc(NCCCO)c([N+](=O)[O-])c3nonc23)C1 (configuration not stated) : its inhibition reads 1.76

Form field inhibition, entry O=C(NCCCN1CCCC1=O)Nc1ccc(Cl)cc1 : -8.24

Short answer for Cc1ccc(NC(=O)CCC(=O)c2cccs2)c(O)c1 : inhibition was -1.47

Briefly, inhibition measured for COc1ccc2nc(NC(=O)CSc3nnc(-c4ccoc4C)n3C)sc2c1 : 0.74

The compound listed as Cn1nc(C(=O)OCC(=O)Nc2ccc(S(N)(=O)=O)cc2)c2ccccc2c1=O shows inhibition equal to 4.62

Notebook: CCn1cc(CNC(=O)c2cccc([N+](=O)[O-])c2)cn1 , inhibition read as -9.32

The compound identified as COC(=O)c1ccc2c(c1O)C(=O)c1ccccc1C2=O registered its inhibition at 1.91

Notebook: CC(C)COC(=O)c1ccccc1C(=O)OCC(C)C , inhibition read as -10

Entry O=C(COC(=O)c1ccccc1O)NCCC1=CCCCC1 — recorded inhibition = 7.1

Sample COCCCNC(=O)c1ccc(N2CCOCC2)c(NS(=O)(=O)c2ccc(OC)cc2)c1 ; inhibition observed: -10.8

Cc1cc(C)cc(NC(=O)CN2C(=O)NC(C)(c3ccccc3)C2=O)c1 (configuration not stated) yielded inhibition of 1.34

Entry O=C(O)c1ccc(/C=N/NC(=O)c2ccc(NS(=O)(=O)c3cccs3)cc2)cc1 , inhibition reported as 7.29

Measured inhibition of CCn1c(SCC(=O)Nc2nc(C)cs2)nnc1-c1cccnc1 : 10.4

Sure, the documented inhibition for S=c1[nH]nc(-c2ccncc2)n1/N=C/C(Cl)=C\c1ccccc1 is 6.36

Entry under test: O=C(COC(=O)c1ccccc1Cl)NCCC1=CCCCC1 . Its inhibition was 4.94

Value of measured inhibition for the entry O=C(O)C1CC(=O)N(c2ccc3c(c2)OCCO3)C1 (configuration not stated) : 5.06

inhibition reported for this compound NC(=O)c1cn(-c2ccccc2)nc1-c1cccnc1 : -9.42

Item: c1ccc(COc2ccc(CNn3cnnc3)cc2)cc1 | inhibition: -2.39
